Catalogue of variants with associated self-cleavage
B1: CPEB3 Ribozyme (parent)
chain: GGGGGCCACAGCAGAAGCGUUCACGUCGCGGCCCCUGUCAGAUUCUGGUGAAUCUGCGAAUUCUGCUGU

- Variants of: B1
- assay.procedure: self-cleavage, relative activity (ratio to wild type); higher = more cleavage; co-transcriptional
# respond with the number and nothing more

Solved entries:
variant.designation: A23C U49G
value.kind: self-cleavage
quantitative.result: 0.916
//
variant.designation: A23U G58U
value.kind: self-cleavage
quantitative.result: 1.01
//
variant.designation: G4C U64G
value.kind: self-cleavage
quantitative.result: 0.355
//
variant.designation: A13U G14C
value.kind: self-cleavage
quantitative.result: 0.351
//
variant.designation: U44G A59C
value.kind: self-cleavage
quantitative.result: 0.629
//
variant.designation: G31C U55G
value.kind: self-cleavage
quantitative.result: 0.136
//
variant.designation: A60G G65C
value.kind: self-cleavage
quantitative.result: 0.362
//
variant.designation: U38C U55G
value.kind: self-cleavage
quantitative.result: 0.242

[in] Form field: reported self-cleavage of U26A C33U
[out] 0.85

[in] Look at this variant and give its reported self-cleavage. G31A U61C
[out] 0.327

[in] Given the variant U38A C39G , what is its reported self-cleavage?
[out] 0.994

[in] Any idea what its self-cleavage is? The variant is G17U C32G
[out] 0.135

[in] For the variant shown here, G17U A42G , give the reported self-cleavage.
[out] 0.353

[in] What self-cleavage value was documented for this variant, A13C U69A ?
[out] 0.915

[in] For G50A C66G , what is its reported self-cleavage?
[out] 0.902
